Task for the reader: assign each of the following binders its reported SKW3 WT vs KO anti-mFc-647.
tgt: T1, human CD4 on cells (SKW3 cells; human PBMCs) (human, UniProt P01730 26-458)
T1 construct: whole, on cells; SKW3 CD4 knockout cells served as the negative cell line for the WT vs KO ratios; also called hCD4; SKW3 WT
protocolSummary: FACS primary screen, non-clonal hybridoma supernatant; SKW3 WT vs SKW3 CD4 KO cells, anti-mFc-647
Answers are plain numbers, in fold.

Observe how each entry below is paired with its result.
binder	measuredProperty	unitSymbol	measuredResult
75110_05E13A (antibody, V domains shown, Tested as non-clonal hybridoma supernatant (AlivaMab Mouse Kappa), detected with anti-mouse Fc and anti-human kappa) VH: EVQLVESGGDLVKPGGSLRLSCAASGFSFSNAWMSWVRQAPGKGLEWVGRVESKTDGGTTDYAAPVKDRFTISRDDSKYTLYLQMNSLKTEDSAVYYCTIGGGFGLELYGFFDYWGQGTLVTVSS VL: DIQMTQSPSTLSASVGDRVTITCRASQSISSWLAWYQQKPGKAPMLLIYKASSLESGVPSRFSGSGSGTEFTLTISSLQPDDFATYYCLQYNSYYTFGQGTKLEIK	SKW3 WT vs KO anti-mFc-647	fold	5.8
75110_04H17A (antibody, V domains shown, Tested as non-clonal hybridoma supernatant (AlivaMab Mouse Kappa), detected with anti-mouse Fc and anti-human kappa) VH: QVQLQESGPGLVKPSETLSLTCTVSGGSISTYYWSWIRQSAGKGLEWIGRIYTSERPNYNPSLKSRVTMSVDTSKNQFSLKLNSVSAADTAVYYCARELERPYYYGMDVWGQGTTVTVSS VL: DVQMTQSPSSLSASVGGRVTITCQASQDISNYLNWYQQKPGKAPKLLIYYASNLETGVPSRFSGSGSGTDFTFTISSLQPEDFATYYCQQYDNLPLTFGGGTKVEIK	SKW3 WT vs KO anti-mFc-647	fold	2.9
75110_02I18A (antibody, V domains shown, Tested as non-clonal hybridoma supernatant (AlivaMab Mouse Kappa), detected with anti-mouse Fc and anti-human kappa) VH: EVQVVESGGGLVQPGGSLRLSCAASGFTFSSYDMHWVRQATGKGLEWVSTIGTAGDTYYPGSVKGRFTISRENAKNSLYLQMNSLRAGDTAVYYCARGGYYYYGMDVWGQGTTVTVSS VL: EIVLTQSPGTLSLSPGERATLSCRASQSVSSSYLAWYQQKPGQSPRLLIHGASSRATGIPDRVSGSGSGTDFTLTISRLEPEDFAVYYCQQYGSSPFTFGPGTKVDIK	SKW3 WT vs KO anti-mFc-647	fold	4.2
75110_08A13A (antibody, V domains shown, Tested as non-clonal hybridoma supernatant (AlivaMab Mouse Kappa), detected with anti-mouse Fc and anti-human kappa) VH: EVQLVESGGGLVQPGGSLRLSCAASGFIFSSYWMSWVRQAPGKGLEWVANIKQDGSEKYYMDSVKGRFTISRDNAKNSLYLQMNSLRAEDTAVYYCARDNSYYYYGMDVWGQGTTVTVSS VL: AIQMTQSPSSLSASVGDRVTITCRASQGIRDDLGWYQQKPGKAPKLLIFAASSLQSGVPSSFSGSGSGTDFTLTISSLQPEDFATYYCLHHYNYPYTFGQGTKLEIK	SKW3 WT vs KO anti-mFc-647	fold	2.7

Endpoint output: SKW3 WT vs KO anti-mFc-647 of 75110_03I08A (antibody, V domains shown, Tested as non-clonal hybridoma supernatant (AlivaMab Mouse Kappa), detected with anti-mouse Fc and anti-human kappa) VH: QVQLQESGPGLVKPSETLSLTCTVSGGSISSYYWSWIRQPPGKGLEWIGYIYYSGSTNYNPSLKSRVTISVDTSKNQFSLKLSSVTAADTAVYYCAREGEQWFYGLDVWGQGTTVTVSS VL: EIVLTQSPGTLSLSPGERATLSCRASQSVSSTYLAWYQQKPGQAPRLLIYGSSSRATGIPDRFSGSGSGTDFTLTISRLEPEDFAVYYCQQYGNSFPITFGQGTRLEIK . Value? 7.6
